System: OVCAR-4 ovarian
assay.overview: NCI tumour cell line growth inhibition, 48 h
parameter: TGI

Consider the worked cases shown below.
COc1ccc([C@@H]2OC(=O)C3C2C(=O)O[C@H]3c2ccc(OC)cc2)cc1 (some centres undefined) | > 100 µM
O=C1CN(c2ccccc2)C(=O)CN1NCNN1CC(=O)N(c2ccccc2)CC1=O | > 100 µM
CON[N+]([O-])=NC(C)C | > 100 µM

stdin: Which TGI is listed for CC1(C)[C@H]2Cc3cc4nc5ccccn5c4cc3[C@@H]1C2 ?
stdout: 26 µM

stdin: Which TGI is listed for COC(=O)Cc1c(C2C(CC(=O)OC)c3ccccc3N2C2OC(CO)C(O)C(O)C2O)[nH]c2ccccc12 (centres undefined) ?
stdout: > 100 µM

stdin: Which TGI is listed for OC(Cc1cc(CC(O)(C(F)(F)F)C(F)(F)F)nc(CC(O)(C(F)(F)F)C(F)(F)F)c1)(C(F)(F)F)C(F)(F)F ?
stdout: > 10 µM

stdin: Which TGI is listed for COc1ccc(/C=C/C(=O)/C=C(O)/C=C/c2ccc(OC)c(OC)c2)cc1OC ?
stdout: > 100 µM

stdin: Which TGI is listed for O=C1c2ccc3c4c(ccc(c24)C(=O)N1CCNCc1ccccc1)C(=O)N(CCNCc1ccccc1)C3=O ?
stdout: 2.71 µM

stdin: Which TGI is listed for O=C(CCCn1ccnc1[N+](=O)[O-])NCCn1cnc([N+](=O)[O-])n1 ?
stdout: > 100 µM

###

System: LOX IMVI melanoma
assay.overview: NCI tumour cell line growth inhibition, 48 h; in the data active means GI50 below about 0.43 µM; inactive means the rest
Use one of these outcomes when replying: active, inactive

Example entries and their recorded answers appear below.
COc1cc(C)[nH]c(=O)c1CNC(=O)c1c(C)n([C@H](C)C2CCN(CC(F)(F)F)CC2)c2ccccc12 | inactive
CC[C@@H](C)/C=C(C)/C=C/C(=O)c1c(O)c(-c2ccc(O)cc2)cn(OC2CC(=O)CCC(C)OC(=O)CC2O)c1=O (stereo partly drawn) | active
COCCn1c2c([n+](Cc3cnccn3)c1C)C(=O)c1ccccc1C2=O | active

stdin: Short answer needed: outcome of this test for Cc1c(C(=O)c2ccccc2)[n+](=O)c2cc(F)c(F)cc2n1[O-] ?
stdout: inactive

stdin: Short answer needed: outcome of this test for O=C(/C=C/C=C/c1ccc2c(c1)OCO2)N/N=C\c1ccc(O)cc1O ?
stdout: inactive

stdin: Short answer needed: outcome of this test for Nc1ncnc2c1ccn2-c1cccc(NC(=O)c2ccc(N3CCOCC3)c(C(F)(F)F)c2)c1 ?
stdout: inactive

stdin: Short answer needed: outcome of this test for COc1cc(C(=O)NN=C2c3ccccc3-c3ccccc32)cc(OC)c1OC ?
stdout: inactive

###

The entries below come with measured TGI values attached.
Test system: NCI-H226 lung
assay.overview: NCI tumour cell line growth inhibition, 48 h

Consider the worked cases shown below.
NC(=O)c1csc(-c2ccc(CO)o2)n1 | > 100 µM
CC1(C)C(CC(=O)O)CCCC1CC(=O)O (stereo unspecified) | > 100 µM
Cc1ccccc1-n1c(CCl)nc2ccc(Br)cc2c1=O | 28.4 µM
CSC1=Nc2ccccc2N=C(c2ccccc2)C1 | > 100 µM
O=C(NC(OCc1ccccc1)(C(F)(F)F)C(F)(F)F)OCc1ccccc1 | 27.7 µM

stdin: Which TGI is listed for Cc1cccc(N=N/C(=N\NC(=O)c2cc(Cl)ccc2O)c2ccc(N(CCC#N)CCC#N)cc2C)c1 ?
stdout: > 100 µM

stdin: Which TGI is listed for [O-][N+]1=C2CCC/C(=N/O)C2(O)C2CCCCC21N1CCOCC1 (stereo unspecified) ?
stdout: > 100 µM

stdin: Which TGI is listed for c1cc(CSc2ncnc3nc[nH]c23)ccn1 ?
stdout: > 100 µM

stdin: Which TGI is listed for CCOc1cc2c(cc1O)C(=O)C[C@@H]1[C@@H]2CC[C@]2(C)[C@@H](O)CC[C@@H]12 ?
stdout: 17 µM

stdin: Which TGI is listed for CCN(CC)CCSc1c(C(C)=O)c(=O)n(-c2ccccc2)c(=S)n1-c1ccccc1 ?
stdout: > 60.3 µM

stdin: Which TGI is listed for COc1ccc(C=O)cc1OS(=O)(=O)C(F)(F)C(F)(F)C(F)(F)C(F)(F)F ?
stdout: > 100 µM

stdin: Which TGI is listed for CCCCCCCCCCCCc1ccsc1-c1ccc(-c2ccc(-c3sccc3CCCCCCCCCCCC)s2)s1 ?
stdout: > 100 µM

stdin: Which TGI is listed for O=C1c2ccccc2C(=O)N1NC1=NCCN1 ?
stdout: > 100 µM

stdin: Which TGI is listed for COc1cc(C)[nH]c(=O)c1CNC(=O)c1c(C)n([C@H](C)C2CCN(CC(F)(F)F)CC2)c2ccccc12 ?
stdout: > 100 µM

stdin: Which TGI is listed for C#CCNC(=O)CC[C@@H](C)[C@H]1CC[C@H]2[C@@H]3CC[C@@H]4CC(=O)CC[C@]4(C)[C@H]3CC[C@]12C ?
stdout: 36.2 µM

stdin: Which TGI is listed for CCOc1ccc2c(c1)C(=O)c1c-2n(CCCN=[N+]=[N-])c(=O)c2cc([N+](=O)[O-])ccc12 ?
stdout: 9.92 µM

stdin: Which TGI is listed for Cc1ccc(-c2cc(=O)c(=O)[nH][nH]2)cc1 ?
stdout: > 100 µM

stdin: Which TGI is listed for Clc1ccccc1C1SCc2nc3ccccc3n21 (stereo unspecified) ?
stdout: 70.6 µM

###

Test system: HOP-18 NSCLC
assay.overview: NCI tumour cell line growth inhibition, 48 h
parameter: TGI (µM)
Could you give me the number in µM? Just the number is fine.

Consider the worked cases shown below.
Cc1ccccc1-n1c(CCl)nc2ccc(Br)cc2c1=O | 55.3
[CH3][Hg]/[N]=C(/N)NC#N | 17.1
C/C(CCN(C)C)=N\OC(=O)c1ccccc1 | 8.9

stdin: Lookup: TGI / HOP-18 NSCLC / Cc1ccc(NC(=O)CC2SC(=Nc3ccc(Cl)cc3)NC2=O)cc1C (stereo not given)
stdout: 32.5

###

Tested on: MDA-N
assay.overview: NCI tumour cell line growth inhibition, 48 h
The entries below come with measured TGI values attached.
Could you give me the number in µM? Just the number is fine.

Consider the worked cases shown below.
C#CCn1c(=O)ccn(/C(=C/C(=O)OCC)C(=O)OCC)c1=O | 41.1
COc1ccc(/C=C/C(=O)CCN2CCN(CCC(=O)/C=C/c3ccc(OC)cc3)CC2)cc1 | 10.5
Cc1c(Cl)c(C)c(Cl)c(O)c1Cl | 99.2

Please turn your attention to the following entry.
stdin: Lookup: TGI / MDA-N / CC(C)C1=CC2=C(C(=O)C1=O)C13CCCC(C)(C)C1CC2OC3=O (configuration not stated)
stdout: 37.2

###

The entries below come with measured GI50 values attached.
Tested on: 786-0 renal
assay.overview: NCI tumour cell line growth inhibition, 48 h

Consider the worked cases shown below.
O=C1c2ccc3c4c(ccc(c24)C(=O)N1CCNCc1ccccc1)C(=O)N(CCNCc1ccccc1)C3=O | 1890 nM
CCCCCCCCCC[C@H](O)[C@H]1CC[C@@H]([C@@H](O)CC[C@H](O)[C@@H]2CCC(CCCCCCC[C@@H](O)CC3=C[C@H](C)OC3=O)O2)O1 (some centres undefined) | 4900 nM
Nc1c(C(=O)Nc2cccc(C(F)(F)F)c2)sc2nc3c(cc12)CCCCCC3 | 1600 nM

Please turn your attention to the following entry.
stdin: Which GI50 is listed for Cc1cnc(-c2ccc(-c3ccc(NC(=O)Nc4c(F)cc(F)cc4F)cc3F)c3c2C(=O)NC3)[nH]1 ?
stdout: 1250 nM

###

Tested on: EKVX NSCLC
assay.overview: NCI tumour cell line growth inhibition, 48 h
The entries below come with measured TGI values attached.
Could you give me the number in µM? Just the number is fine.

Cc1c(Cl)c(C)c(Cl)c(O)c1Cl | 82.1

Please turn your attention to the following entry.
stdin: Which TGI is listed for CCCCCCCCCCCCCCCCCC[S+](C)CC (stereo not given) ?
stdout: 4.31

###

System: UACC-62 melanoma
assay.overview: NCI tumour cell line growth inhibition, 48 h
The entries below come with measured TGI values attached.
Could you give me the number in µM? Just the number is fine.

Consider the worked cases shown below.
C=C(C)COc1cc(NC(=S)OC(C)C)ccc1Cl | 32.7
CCCCCCc1cc2cc(C(=O)Nc3cccc(F)c3)c(=N)oc2cc1O | 7.04
CC(C)C(=O)/C=C/c1c(Cl)cccc1Cl | 19.1
Fc1ccc(Nc2nc3nonc3nc2Nc2ccc(I)cc2)cc1 | 2.16
CC(=O)ON=C1C=CC(=C(C#N)c2ccccc2)C=C1 | 25.7
COc1ccc(CNc2nc3cc(C(F)(F)F)ccc3nc2C(=O)O)cc1 | 49.8

stdin: Which TGI is listed for COc1cc(N(CCCl)CCCl)ccc1/C=N\NC(=O)c1cccnc1 ?
stdout: 29.5

Value source: PubChem BioAssay (NCI)
